Biological target: T1, cynomolgus monkey CD19 on peripheral blood B cells (cynomolgus monkey (Macaca fascicularis), UniProt A0A2K5W8L9 20-557)
T1 construct: whole, on cells; also called cynomolgus monkey B cells
T1 sequence: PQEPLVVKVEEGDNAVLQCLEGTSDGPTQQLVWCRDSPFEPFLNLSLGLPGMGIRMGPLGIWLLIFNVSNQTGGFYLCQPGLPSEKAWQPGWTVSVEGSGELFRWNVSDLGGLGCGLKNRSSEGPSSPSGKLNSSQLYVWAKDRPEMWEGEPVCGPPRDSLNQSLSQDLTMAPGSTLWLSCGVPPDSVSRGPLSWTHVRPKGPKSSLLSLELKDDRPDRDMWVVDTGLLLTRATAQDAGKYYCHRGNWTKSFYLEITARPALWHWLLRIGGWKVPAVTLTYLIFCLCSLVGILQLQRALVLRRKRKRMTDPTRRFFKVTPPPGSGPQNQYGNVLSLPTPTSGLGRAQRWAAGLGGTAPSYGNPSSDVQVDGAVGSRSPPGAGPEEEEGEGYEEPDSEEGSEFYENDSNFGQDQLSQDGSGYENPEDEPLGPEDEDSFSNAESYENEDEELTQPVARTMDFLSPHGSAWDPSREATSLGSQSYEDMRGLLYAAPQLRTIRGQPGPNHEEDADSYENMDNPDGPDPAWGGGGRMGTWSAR
Assay: FACS, cynomolgus PBMC, CD20+ B cells
Method: The monkey peripheral blood mononuclear cells were extracted from fresh cynomolgus monkey peripheral blood (purchased from Shanghai Medicilon Inc.) according to the instructions of Ficoll-Paque Plus (purchased from GE Healthcae, catalog number: 171440-02). After the cell suspension was centrifuged, the cells were resuspended in PBS containing 1% BSA, and then the cells were counted. […] The mixture was incubated for 1 h at room temperature. […]
Mark class 1 only when Proportion of chimeric antibody positive cells to B cells (%) at 100 nM stays strictly below 70%. Values equal to the cut-off are class 0.

Quick check: does F4.78.1 (antibody, human IgG1, V domains shown, human-murine chimeric antibody, human IgG1) VH: QVQIQQSGAELARPGASVKLSCKASGYTFTNYWMQWIKQRPGQGLEWIGAIYPGDGDTRYTQKFKGKATLTADKSSSTAYMQLSSLASEDSAVYYCAREEVWSPYGMDYWGQGTSVTVSS VL: QIVLTQSPAIMSASPGEKVTITCSASSSVSYMGWFQQKPGTSPKLWIYSTSNLASGVPARFSGSGSGTSYSLTISRMEAEDAATYYCQQRSIYPLTFGAGTKLELK have Proportion of chimeric antibody positive cells to B cells (%) at 100 nM under 70%?
class 0

Field: below-cutoff. Rule: recorded Proportion of chimeric antibody positive cells to B cells (%) at 100 nM strictly less than 70%. Subject: F4.82.11 (antibody, human IgG1, V domains shown, human-murine chimeric antibody, human IgG1) VH: QVTLKESGPGILQASQTLSLTCSFSGFSLSTFGIGVGWVRQPSGKGLEWLAHIWWNDNKFFNTTLKNRLTLSKDPSNNQVFLKIASVDTADTATYYCARSRSALITTGLYAMDYWGQGTSVTVSS VL: DIQMTQTPSSLSASLGDRVTISCRSSQDISNYVNWYQQKPDGTVKVLINYTSRLHSGVPSRFSGSGSGTDYSLTISNLEQEDIASYFCQQGFTLPYTFGGGTKLEIK
class 0

Please let me know if F4.96.6 (antibody, human IgG1, V domains shown, human-murine chimeric antibody, human IgG1) VH: EIQLQQSGPELVKPGASVKVSCKASGYAFSAYNIYWVKQSHGKSLEWIGYIDPYNSGTTYNQKFRGKATLTVDKSSNTAYMHLSSLTSEDSAVYYCTRDGDAMDYWGQGTSVTVSS VL: EILLTQSPAIIAASPGEKVTITCSASSGVIYMNWYQQKPGSSPKIWIYDVSTLASGVPARFSGSGSGTSFSFTINSMEAEDVATYYCQQRSSYPYTFGGGTKLEIK shows Proportion of chimeric antibody positive cells to B cells (%) at 100 nM below 70%.
class 1

Threshold test, Proportion of chimeric antibody positive cells to B cells (%) at 100 nM < 70%: F3.113.16 (antibody, human IgG1, V domains shown, human-murine chimeric antibody, human IgG1) VH: QVQLQQPGAELVKPGASVKLSCKASGYTFTNYWMQWVKQRPGQGLEWIGEIDPSDSYINYNQKFKGKATLTADTSSSTAYMQLSSLTYEDSAVYYCARPVTVPWYFDVWGTGTTVTVSS VL: EIVLTQSPTTMAASPGEKITITCSATSSISSNYLHWYQQKPGFSPKLLIYRTSNLASGVPARFSGSGSGTSYSLTIGTMEAEDVATYYCQQGSAIPRIFTFGSGTKLEIK
class 1

Hi there! Is Proportion of chimeric antibody positive cells to B cells (%) at 100 nM for F4.107.12 (antibody, human IgG1, V domains shown, human-murine chimeric antibody, human IgG1) VH: EVQLQQSGPELVKPGASVKMSCKASGYTFTSYVLHWVRQKPGQGLEWIGYFNPYNDGTEYNEKFKGKAILTSDKSSSTAYMELNSLTSEDSAVYYCVGGTYYYGSSYPFAYWGQGTLVTVST VL: DVVMTQISLSLPVSLGDQASISCRSSQSLIHSNGNTYLQWYLQKPGQSPKLLIYKVSNRLSGVPDRFSGSGSGTDFTLKISRVEAEDLGVYFCSQSTHVPYTFGGGTKLEIK below 70%, do you know?
class 1

Each recorded value in this set is attributed to patent US20250042994A1.
